Assay: Tissue distribution after intravenous administration
Format: in vivo
Conditions: Sprague-Dawley (SD), brain; rat, IV 10 mg/kg, 12 h; read-out: T/P ratio, brain
Method: Jaspine B was dissolved in a vehicle containing DMSO: PEG400: saline (2:4:4, v/v/v) and IV-injected via the femoral vein at a dose of 10 mg/kg (vehicle volume, 1 mL/kg). Blood samples were collected from the abdominal artery and animals were euthanized at 0.5 h and 12 h after IV dosing. The blood, brain, liver, kidney, heart, and spleen were immediately excised, gently washed with ice-cold saline, and weighed. The tissue samples were homogenized with 9 volumes of saline. […]
Reported Endpoint: Kp at 12 h
Give your answer as a number; write no unit.

Record CCCCCCCCCCCCCC[C@@H]1OC[C@H](N)[C@@H]1O [Jaspine B] . Reported Kp at 12 h: 1.8

---

assay: Pharmacokinetics after oral administration with or without taurocholate in control and bile-depleted rats; assay type: in vivo; conditions: male, SD, rat, plasma, 30 mg/kg, oral 30 mg/kg, control rats
Reported Endpoint: Tmax (h)
Please reply with the bare figure in h and do not write the unit itself.

Field Tmax (entry CCCCCCCCCCCCCC[C@@H]1OC[C@H](N)[C@@H]1O [Jaspine B] ) reads 2.5

---

test: Cumulative urinary and fecal excretion in metabolic cage; assay type: in vivo; conditions: SD (Sprague-Dawley), feces and urine combined; rat, IV 10 mg/kg, 72 h; read-out: recovery of unaltered Jaspine B from combined feces and urine
Reported Endpoint: dose excreted (%)
Lab book: enter the figure in %, no units written.

dose excreted reported for this compound CCCCCCCCCCCCCC[C@@H]1OC[C@H](N)[C@@H]1O [Jaspine B] : 6.3

---

Assay: Pharmacokinetics after oral administration with or without taurocholate in control and bile-depleted rats
Type: in vivo
Details: male, Sprague-Dawley, rat, plasma, 30 mg/kg, oral 30 mg/kg, bile-depleted rats
Protocol: Male SD rats (aged 8–9 weeks, weighing 250–300 g) were obtained from Samtako Bio Korea, Inc. (Osan, Korea). The rats were acclimatized for 1 week in a temperature-controlled room (23 ± 2 °C) with a 12-h illumination cycle. […] Pharmacokinetic parameters were determined using a non-compartmental analysis (WinNonlin® 2.0; Pharsight, Mountain View, CA, USA). […] The area under the plasma concentration–time curve from zero to infinity (AUC) was calculated using the trapezoidal-extrapolation method. […]
Reported Endpoint: Cmax (ng/mL)
Reply with just the number (in ng/mL).

So for CCCCCCCCCCCCCC[C@@H]1OC[C@H](N)[C@@H]1O [Jaspine B] , the logged Cmax turned out to be 8.5

---

Assay: Tissue distribution after intravenous administration
Assay type: in vivo
Details: Sprague-Dawley (SD), heart; rat, IV 10 mg/kg, 0.5 h; read-out: T/P ratio, heart
Description: Jaspine B was dissolved in a vehicle containing DMSO: PEG400: saline (2:4:4, v/v/v) and IV-injected via the femoral vein at a dose of 10 mg/kg (vehicle volume, 1 mL/kg). Blood samples were collected from the abdominal artery and animals were euthanized at 0.5 h and 12 h after IV dosing. The blood, brain, liver, kidney, heart, and spleen were immediately excised, gently washed with ice-cold saline, and weighed. The tissue samples were homogenized with 9 volumes of saline. […]
Reported Endpoint: Kp at 0.5 h
The reply should be a number, written without any unit.

response.value for CCCCCCCCCCCCCC[C@@H]1OC[C@H](N)[C@@H]1O (field: Kp at 0.5 h) = 14.4

---

test: Pharmacokinetics after oral administration with or without taurocholate in control and bile-depleted rats; assay type: in vivo; settings: male, SD, rat, plasma, 30 mg/kg, oral 30 mg/kg, bile depletion + TC 60 mg/kg
Reported Endpoint: Tmax (h)
Return type: number; implicit unit h.

Reported Tmax of CCCCCCCCCCCCCC[C@@H]1OC[C@H](N)[C@@H]1O : 1

---

assay: Cumulative urinary and fecal excretion in metabolic cage; assay type: in vivo; conditions: Sprague-Dawley (SD), feces and urine combined; rat, IV 10 mg/kg, 72 h; read-out: recovery of unaltered Jaspine B from combined feces and urine
Reported Endpoint: dose excreted

# dose excreted of CCCCCCCCCCCCCC[C@@H]1OC[C@H](N)[C@@H]1O = ~6.3%

---

experiment: Pharmacokinetics after oral administration with or without taurocholate in control and bile-depleted rats; type: in vivo; conditions: male, SD, rat, plasma, 30 mg/kg, oral 30 mg/kg, control + TC 60 mg/kg
Reported Endpoint: Tmax (h)
Value expressed in h; do not type the unit.

Lab book: Tmax of CCCCCCCCCCCCCC[C@@H]1OC[C@H](N)[C@@H]1O noted as 3.3

---

assay: Pharmacokinetics after oral administration with or without taurocholate in control and bile-depleted rats; assay type: in vivo; conditions: male, SD, rat, plasma, 30 mg/kg, oral 30 mg/kg, control + TC 60 mg/kg
Reported Endpoint: AUC(0-inf) (ng·h/mL)
# output: bare number, implied unit ng·h/mL

Lab book: AUC(0-inf) of CCCCCCCCCCCCCC[C@@H]1OC[C@H](N)[C@@H]1O noted as 2100

---

assay: Metabolic stability in rat liver microsomes; assay type: in vitro ADME; settings: pH 7.4; 1 μM, rat liver microsomes, NADPH-generating system; read-out: degradation half-life (T1/2)
Reported Endpoint: half-life at 1 μM (min)
Field format: number, assumed min, no unit text.

What the record says about CCCCCCCCCCCCCC[C@@H]1OC[C@H](N)[C@@H]1O [Jaspine B] : half-life at 1 μM is 24

---

test: Pharmacokinetics after oral administration with or without taurocholate in control and bile-depleted rats; format: in vivo; settings: male, SD, rat, plasma, 30 mg/kg, oral 30 mg/kg, control rats
Reported Endpoint: MRT
Show the value, then the unit it is measured in.

The compound listed as CCCCCCCCCCCCCC[C@@H]1OC[C@H](N)[C@@H]1O shows MRT equal to 4.9 h

---

assay: Pharmacokinetics after oral administration with or without taurocholate in control and bile-depleted rats; assay type: in vivo; settings: male, SD, rat, plasma, 30 mg/kg, oral 30 mg/kg, bile depletion + TC 60 mg/kg
Reported Endpoint: AUC(0-inf) (ng·h/mL)
The answer is to be given in ng·h/mL; state only the numeric part.

Data point: CCCCCCCCCCCCCC[C@@H]1OC[C@H](N)[C@@H]1O [Jaspine B] ; AUC(0-inf) = 1200

---

assay: Tissue distribution after intravenous administration; type: in vivo; conditions: Sprague-Dawley (SD), liver; rat, IV 10 mg/kg, 12 h; read-out: T/P ratio, liver
Reported Endpoint: Kp at 12 h
API doc: respond with a numeric literal and nothing else, no unit.

Measured Kp at 12 h, CCCCCCCCCCCCCC[C@@H]1OC[C@H](N)[C@@H]1O : 1.2

---

assay: Pharmacokinetics after oral administration with or without taurocholate in control and bile-depleted rats; type: in vivo; settings: male, SD, rat, plasma, 30 mg/kg, oral 30 mg/kg vs IV 10 mg/kg, bile-depleted rats, from AUC12h, read-out: BA (oral bioavailability)
Reported Endpoint: bioavailability (%)
Write it as a number; the unit % goes unstated.

response.value for CCCCCCCCCCCCCC[C@@H]1OC[C@H](N)[C@@H]1O [Jaspine B] (field: bioavailability) = 1.6

---

assay: Pharmacokinetics after oral administration with or without taurocholate in control and bile-depleted rats; format: in vivo; conditions: male, SD, rat, plasma, 30 mg/kg, oral 30 mg/kg, bile-depleted rats
Reported Endpoint: Tmax (h)
Give just the number in h; leave the unit off.

So for CCCCCCCCCCCCCC[C@@H]1OC[C@H](N)[C@@H]1O , the logged Tmax turned out to be 9.3

---

experiment: Pharmacokinetics after oral administration with or without taurocholate in control and bile-depleted rats; assay type: in vivo; settings: male, SD, rat, plasma, 30 mg/kg, oral 30 mg/kg, control + TC 60 mg/kg
Reported Endpoint: half-life (h)
The response must be a number in h with no trailing unit.

compound CCCCCCCCCCCCCC[C@@H]1OC[C@H](N)[C@@H]1O , half-life observed: 6.4

---

assay: Pharmacokinetics after intravenous injection (plasma, bile, urine); type: in vivo, rat; conditions: male, Sprague-Dawley; rat plasma, IV 10 mg/kg
Reported Endpoint: AUC(0-inf)
The reply should consist of the numeric value with the unit placed after it.

// AUC(0-inf) lookup, compound = CCCCCCCCCCCCCC[C@@H]1OC[C@H](N)[C@@H]1O , result: 1700 ng·h/mL

---

assay: Pharmacokinetics after oral administration with or without taurocholate in control and bile-depleted rats; assay type: in vivo; details: male, SD, rat, plasma, 30 mg/kg, oral 30 mg/kg, control rats, read-out: AUC12h
Reported Endpoint: AUC(0-t) (ng·h/mL)
Please state the figure in ng·h/mL; there is no need to write the unit.

AUC(0-t) recorded for this compound, CCCCCCCCCCCCCC[C@@H]1OC[C@H](N)[C@@H]1O [Jaspine B] , is 241

---

test: Pharmacokinetics after intravenous injection (plasma, bile, urine); format: in vivo, rat; settings: male, Sprague-Dawley; rat plasma, IV 10 mg/kg; read-out: AUC12h
Reported Endpoint: AUC(0-t) (ng·h/mL)
API: value field is a number in ng·h/mL; no unit string.

Field AUC(0-t) (entry CCCCCCCCCCCCCC[C@@H]1OC[C@H](N)[C@@H]1O [Jaspine B] ) reads 1290
